- System: wheat
- assay notes: Test B postemergence herbicide test
- Format: in vivo, Triticum aestivum
- Set-up: key: 0 = no effect, 100 = complete control
- experimental conditions: postemergence, 500 g ai/ha; visual rating, scale 0 (no effect) to 100 (complete control)
// Wheat plant response rating lookup, one value per entry
reported endpoint: Wheat plant response rating

[[record]]
compound = "CCCc1nn(C(C)(C)C)cc1C(=O)Nc1cccc(C(=O)N(CC)CC)c1 [Compound 185]"
reported_endpoint = "Wheat plant response rating"
result = 10

[[record]]
compound = "CCn1nc(C(C)(C)C)cc1C(=O)Nc1cccc(S(=O)(=O)C(F)(F)F)c1 [Compound 134]"
reported_endpoint = "Wheat plant response rating"
result = 20

[[record]]
compound = "C=CCn1nc(C(C)(C)C)cc1C(=O)Nc1cccc(C(C)=O)c1 [Compound 129]"
reported_endpoint = "Wheat plant response rating"
result = 0

[[record]]
compound = "CCn1nc(C(C)(C)C)cc1C(=O)Nc1cccc(C(=O)N(C)CC#N)n1 [Compound 158]"
reported_endpoint = "Wheat plant response rating"
result = 10

[[record]]
compound = "C=CCNC(=O)c1cccc(NC(=O)c2sc(C(C)(C)C)nc2C)c1 [Compound 202]"
reported_endpoint = "Wheat plant response rating"
result = 0

[[record]]
compound = "C#CCNC(=O)c1cccc(NC(=O)c2sc(C(C)(C)C)nc2C)c1 [Compound 203]"
reported_endpoint = "Wheat plant response rating"
result = 0

[[record]]
compound = "Cc1nc(C(C)(C)C)sc1C(=O)Nc1cccc(C(=O)NCC(F)(F)F)c1 [Compound 201]"
reported_endpoint = "Wheat plant response rating"
result = 0

[[record]]
compound = "CCn1nc(C(C)(C)C)cc1C(=O)Nc1nc(OC)cc(SCF)n1 [Compound 167]"
reported_endpoint = "Wheat plant response rating"
result = 0

[[record]]
compound = "C#CCN(C)C(=O)c1ccnc(NC(=O)c2cc(C(C)(C)C)nn2CC)c1 [Compound 160]"
reported_endpoint = "Wheat plant response rating"
result = 10

[[record]]
compound = "CCc1nn(C(C)(C)C)cc1C(=O)Nc1cccc(C(C)=NO)c1 [Compound 188]"
reported_endpoint = "Wheat plant response rating"
result = 10


Value source: patent US20060069132A1
